System: colon human tumor (HT-29) cells
Assay Explanation: Cell growth inhibitory activity, standard MTT assay
Type: cell-based
Condition Description: Homo sapiens, MTT assay after 72 hr exposure, 0.1% DMSO, read-out: IC50 range
pIC50: −log10 of the molar value.
Measured Parameter: pIC50

# pIC50 lookup, item CC(C)NC(=O)N1CCc2cc(S(=O)(=O)N3C[C@H](c4ccccc4)N=C3N)ccc21
> 7.00
